Measured Inhibition, listed per entry.
- System: Plasmodium falciparum
- Experiment Notes: GSK_TCMDC: Inhibition of Plasmodium falciparum Dd2 in whole red blood cells, using parasite LDH activity as an index of growth. Test compounds present at 2uM
- Format: functional
Property: Inhibition (%)

                                        mol  reported_result
0  CC(C)[C@H](NC(=O)c1c(CN2CCC(N3CCCCC3)CC2)c(-c2ccccc2)nc2cc(O)ccc12)c1ccccc1               73
1  CC(C)CCn1c(Sc2ccc([N+](=O)[O-])cc2C(F)(F)F)nnc1-c1ccccc1Cl               43
2  c1ccn2c(-c3ncnc(NCc4ccc5c(c4)CCO5)n3)cnc2c1               47
3                    CNC(=S)NCc1cnc2ccccn12                0
4  CON=Cc1ccn(-c2ccc(O)c3c2C[C@H]2C[C@H]4[C@H](N(C)C)C(O)=C(C(N)=O)C(=O)[C@@]4(O)C(O)=C2C3=O)c1.O=S(=O)(O)O               70
5    CCOc1cc(C=Cc2nc(O)c3ccccc3n2)cc(Cl)c1O               90
6  COC(=O)[C@@H](NC(=O)[C@@H](Nc1ccc(C#N)c2ccccc12)C(C)(C)C)c1ccc(O)cc1               74
7  Cc1[nH]c(C)c(-c2ccc(-c3ccccc3Cl)nc2)c(=O)c1Cl               97
8    Cc1cc(N2CCCN(C)CC2)nc(Nc2ccc(Cl)cc2)n1               11
